meta.source: ChEMBL document CHEMBL2407045

- ASSAYED_SYSTEM: Trypsin (Homo sapiens, UniProt P07477+P07478+P35030)
- ASSAY_NAME: Inhibition of purified human trypsin
- Assay type: protein assay
REPORTED_ENDPOINT: Ki (µM)

COc1cc([C@@H]2Nc3ccc(C(=N)N)cc3[C@H]3c4ccccc4C[C@H]32)c(-c2cccc(C(=O)O)c2)cc1O (racemic) | 6.9

[1] COc1cc([C@@H]2Nc3ccc(C(=N)N)cc3[C@H]3c4ccccc4C[C@H]32)c(-c2ccccc2C(=O)O)cc1O (racemic)
[2] COc1cc([C@@H]2Nc3ccc(C(=N)N)cc3[C@H]3c4ccccc4C[C@H]32)ccc1O (racemic)
*Q* Higher Ki: 1 or 2 ? Identify your selection by its label.
*A* 2
(2: 0.3 µM, 1: 0.0075 µM)
